Assay: protein stability index of a GFP-peptide fusion (GPS, HEK-293T) (PSI 1-6); higher = more stable;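 note: 24-mer peptide tiles fused after GFP, lentivirally expressed, FACS-sorted into six equal bins by GFP/DsRed ratio, decoded by Illumina sequencing, PSI is the read-weighted mean bin number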
Conditions: treatment: DMSO; c terminus: a fixed tail appended
quantity measured: protein stability index
Format: numeric value only, no unit, no commentary.

Below, 5 sequences whose answers are already recorded.
residue sequence: FNPPPSRPLQVNTADHRIYSYVVS [FAF2]
protein stability index: 2.62
--
residue sequence: VTPEAKDLINKMLTINPAKRITAS [CAMK2D]
protein stability index: 3.29
--
residue sequence: GARSKGQCPEPPIVVHCSAGIGRT [PTPN9]
protein stability index: 3.46
--
residue sequence: FRTKFETEQALRLSVEADINGLRR [KRT17]
protein stability index: 3.37
--
residue sequence: WFESVLEPGYIDSEIGTSDQIVPE [TRIB1]
protein stability index: 4.44

Entry NRDLRKASVTIQARAEQEEEFISN [CCDC6] , protein stability index reported as 4.96

Entry AVDGILHMFTPKLDKMLDPQVWRE [SLC6A17] , protein stability index reported as 2.27

Entry SVLNGKFANLIKEFVIIDCRYPYE [CDC25A] , protein stability index reported as 2.63

Entry MAAGNTVIAKPSELTSVTAWMLCK [ALDH8A1] , protein stability index reported as 2.44

* * *

Test: protein stability index of a GFP-peptide fusion (GPS, HEK-293T) (PSI 1-6); higher = more stable
Settings: treatment: MLN4924 1 uM, 8 h; c terminus: a fixed tail appended
Outcome: label 1 for protein stability index of at least 4; label 0 for anything lower.

Previously resolved entries follow.
residue sequence: IITVTLNMEKYNFLGISIVGQSNE [DVL3]
category: label 0
--
residue sequence: EGRPGAATFHVGGGPAQNAPHQQP [TFE3]
category: label 1
--
residue sequence: VIFLLLFAPFIVYYFIMACDQYSC [DHCR7]
category: label 0
--
residue sequence: QDPEGKGEQEHSQQKEEEEEMAVV [CHGA]
category: label 1
--
residue sequence: VAKCLIGVNYPKPMVNHAEASRLN [CRY1]
category: label 0

INPUT: API: above_or_equal(metric=protein stability index, cutoff=4) for item ESKLLGSNSSRMYFTQTLLPGLAG [MLH1]
OUTPUT: label 0

INPUT: API: above_or_equal(metric=protein stability index, cutoff=4) for item ERVEALGQFVMKTRRTLKGHGNKV [GNB5]
OUTPUT: label 0

INPUT: API: above_or_equal(metric=protein stability index, cutoff=4) for item VLSSTTLLPRQPLPLGIKVYEDET [PALM]
OUTPUT: label 1

INPUT: API: above_or_equal(metric=protein stability index, cutoff=4) for item LALEEPVDYKQSVLNVAGEAGGKQ [SLC6A17]
OUTPUT: label 1

INPUT: API: above_or_equal(metric=protein stability index, cutoff=4) for item QDLKLFLQEPGVFSPTPPQQFQPA [FCHSD1]
OUTPUT: label 0

INPUT: API: above_or_equal(metric=protein stability index, cutoff=4) for item ENIEVKEGGLYFERRPVAQSTDGA [SPSB2]
OUTPUT: label 1

INPUT: API: above_or_equal(metric=protein stability index, cutoff=4) for item IGNPPVGPIGGMMPPQPGIPQQQG [ZNF207]
OUTPUT: label 1

* * *

Assay: protein stability index of a GFP-peptide fusion (GPS, HEK-293T) (PSI 1-6); higher = more stable
Conditions: treatment: DMSO; c terminus: a fixed tail appended
quantity measured: protein stability index
Format: numeric value only, no unit, no commentary.

Below, 5 sequences whose answers are already recorded.
residue sequence: QYNRSSNSNGGNLNSPPGPHSAKT [CDC14A]
protein stability index: 4.42
//
residue sequence: QDPEGKGEQEHSQQKEEEEEMAVV [CHGA]
protein stability index: 5.43
//
residue sequence: KAVSEMRQKIWNNMPKDHPVSCCL [DYNC2LI1]
protein stability index: 2.41
//
residue sequence: QQNIPSTLLQDHENQRLFEMLGRK [WAS]
protein stability index: 4.32
//
residue sequence: NAPNSLGVSALCAICGDRATGKHY [HNF4A]
protein stability index: 2.84

Entry VKCNGALINTSDTVQHGAVYSLEP [SDE2] , protein stability index reported as 3.57

Entry LSLLDNNIPGNSTLITAVELERFV [FBXO33] , protein stability index reported as 2.44

Entry LYKALGAQDLTEAEGWHFFCFQGE [SAT2] , protein stability index reported as 2.5

Entry TVQIICNTGYRLQNNENNISCVER [CFHR2] , protein stability index reported as 2.44

Entry EIFQKPFQTLMFLVRDWSFPYEYS [ATL3] , protein stability index reported as 2.73

Entry PMALLTIGSSSEKEIDDVIDEIIS [TFE3] , protein stability index reported as 2.98

Entry KDESCYDNAEAAFSDDEEDLNSKG [INTS3] , protein stability index reported as 5.6

Entry MAAAAEERMAEEGGGGQGDGGSSL [FBXO28] , protein stability index reported as 5.45

Values compiled from the supplement of paper PMC10567573.
